Each recorded value in this set is attributed to patent US20250144125A1.

Test system: Vero 76 cells
MEASUREMENT CONDITIONS: read-out: MERS-CoV CC50 Vero 76; Neutral Red; MERS-CoV screen
PROPERTY MEASURED: CC50

OC[C@H]1O[C@@H](n2ccc3c(C#CC4CC4)ncnc32)[C@H](O)[C@@H]1O ... > 100 µM
CCc1ncnc2c1c(C#CC1CC1)cn2[C@@H]1O[C@H](CO)[C@@H](O)[C@H]1O ... > 100 µM
OC[C@H]1O[C@@H](n2ccc3c(C#Cc4ccc(F)cc4)ncnc32)[C@H](O)[C@@H]1O ... 29 µM
C=Cc1cn([C@@H]2O[C@H](CO)[C@@H](O)[C@H]2O)c2ncnc(CC)c12 ... > 100 µM
CCc1ncnc2c1c(Cl)cn2[C@@H]1O[C@H](CO)[C@@H](O)[C@H]1O ... > 100 µM

What measured CC50 goes with C=C(OCC)c1ncnc2c1ccn2[C@@H]1O[C@H](CO)[C@@H](O)[C@H]1O ?
86 µM

Give its CC50 value. Item: C#Cc1cn([C@@H]2O[C@H](CO)[C@@H](O)[C@H]2O)c2ncnc(CC)c12
> 100 µM

What value of CC50 has been recorded for this entry: CC(C)C#Cc1ncnc2c1ccn2[C@@H]1O[C@H](CO)[C@@H](O)[C@H]1O
> 100 µM
